Test system: Sphaerotheca fuliginea
Experiment: Example B: in vivo preventive test on Sphaerotheca fuliginea (powdery mildew on cucurbits)
Settings: table B; 500 ppm; gherkin plants; grading 12 days after contamination
Procedure: Example B: In Vivo Preventive Test on Sphaerotheca fuliginea (Powdery Mildew on Cucurbits) […] Gherkin plants (“Vert petit de Paris” variety), sown in starter cups on a 50/50 peat soil-pozzolana substrate and grown at 24° C., are treated at the Z11 cotyledon stage by spraying with the active ingredient prepared as described above. Plants, used as controls, are treated with the mixture of acetone/tween/DMSO/water not containing the active material. […]
Listed here: items and their measured Efficacy.
Give the value in % but do not write % after it.

Reference set (6 entries):
> print(dat)
                                   compound  parameter.measured  test.value
1  Cc1cccc2c1CCC2CN(C(=O)c1c(C(F)F)nn(C)c1F)C1CC1 (centres unmarked)            Efficacy         100
2  COc1cccc2c1CCCC2CN(C(=O)c1c(C(F)F)nn(C)c1F)C1CC1 (centres unmarked)            Efficacy         100
3  Cn1nc(C(F)F)c(C(=S)N(CC2CC(C)(C)c3ccccc32)C2CC2)c1F (centres unmarked)            Efficacy         100
4  Cn1nc(C(F)F)c(C(=O)N(CC2CC(C)(C)Oc3ccccc32)C2CC2)c1F (centres unmarked)            Efficacy         100
5  CC1CCC(CN(C(=O)c2c(C(F)F)nn(C)c2F)C2CC2)c2ccccc21 (centres unmarked)            Efficacy         100
6  Cn1nc(C(F)F)c(C(=O)N(CC2CCc3cc(Cl)ccc32)C2CC2)c1F (centres unmarked)            Efficacy         100

I'm curious: which Efficacy was measured for Cc1ccc2c(c1)CCC2CN(C(=O)c1c(C(F)F)nn(C)c1F)C1CC1 (centres unmarked) tested on Sphaerotheca fuliginea?
100

I'm curious: which Efficacy was measured for Cn1nc(C(F)F)c(C(=O)N(CC2CCSc3ccc(Cl)cc32)C2CC2)c1F (centres unmarked) tested on Sphaerotheca fuliginea?
85

I'm curious: which Efficacy was measured for Cn1nc(C(F)F)c(C(=O)N(CC2CCc3ccc(C(F)(F)F)cc32)C2CC2)c1F (centres unmarked) tested on Sphaerotheca fuliginea?
100

I'm curious: which Efficacy was measured for Cn1nc(C(F)F)c(C(=O)N(CC2CCSc3ccc(F)cc32)C2CC2)c1F (centres unmarked) tested on Sphaerotheca fuliginea?
80

I'm curious: which Efficacy was measured for Cn1nc(C(F)F)c(C(=O)N(CC2CCc3cccc(Br)c32)C2CC2)c1F (centres unmarked) tested on Sphaerotheca fuliginea?
100

----------
assay: log P by HPLC on reversed-phase column (EEC Directive 79/831 Annex V.A8); format: physicochemical; conditions: Table 1; HPLC C18, 40° C., 0.1% aqueous formic acid and acetonitrile gradient
Listed here: items and their measured logP.
Give a plain numeric answer without units written out.

Reference set (4 entries):
> print(dat)
                                   compound  parameter.measured  test.value
1  Cn1nc(C(F)F)c(C(=O)N(CC2CCc3cc(Cl)ccc32)C2CC2)c1F (centres unmarked)                logP        3.83
2  Cc1ccc2c(c1)CCC2CN(C(=O)c1c(C(F)F)nn(C)c1F)C1CC1 (centres unmarked)                logP        3.76
3  Cn1nc(C(F)F)c(C(=O)N(CC2CC(C)(C)Oc3ccccc32)C2CC2)c1F (centres unmarked)                logP        3.53
4  Cn1nc(C(F)F)c(C(=O)N(CC2CCc3c(F)cccc32)C2CC2)c1Cl (centres unmarked)                logP        3.55

Reported logP, compound CC1CCC(CN(C(=O)c2c(C(F)F)nn(C)c2Cl)C2CC2)c2ccccc21 (centres unmarked) : ____
4.11

Reported logP, compound CC(C1CCCc2ccccc21)N(C(=O)c1c(C(F)F)nn(C)c1F)C1CC1 (centres unmarked) : ____
4.08

----------
tested on: Septoria tritici; experiment: Example L: in vivo preventive test on Septoria tritici (wheat); conditions: table L; 500 ppm; wheat plants; grading 24 days after contamination
parameter_measured: Efficacy (%)
Give the value in % but do not write % after it.

Reference set (6 entries):
> print(dat)
                                   molecule  parameter.measured  unit.spec  test.value
1  Cn1nc(C(F)F)c(C(=O)N(CC2CCc3c(F)cccc32)C2CC2)c1F (centres unmarked)            Efficacy          %          93
2  Cn1nc(C(F)F)c(C(=O)N(CC2CSCc3ccccc32)C2CC2)c1F (centres unmarked)            Efficacy          %          93
3  Cn1nc(C(F)F)c(C(=S)N(CC2CCc3c(Cl)cc(Cl)cc32)C2CC2)c1F (centres unmarked)            Efficacy          %          97
4  Cn1nc(C(F)F)c(C(=S)N(CC2CC(C)(C)c3ccccc32)C2CC2)c1F (centres unmarked)            Efficacy          %         100
5  CC(C1CCCc2ccccc21)N(C(=O)c1c(C(F)F)nn(C)c1F)C1CC1 (centres unmarked)            Efficacy          %         100
6  COc1cccc2c1CCCC2CN(C(=S)c1c(C(F)F)nn(C)c1F)C1CC1 (centres unmarked)            Efficacy          %          97

Reported Efficacy, molecule Cn1nc(C(F)F)c(C(=O)N(CC2CC(C)(C)Oc3ccccc32)C2CC2)c1F (centres unmarked) : ____
100

Reported Efficacy, molecule Cn1nc(C(F)F)c(C(=O)N(CC2CCCc3cccc(Cl)c32)C2CC2)c1F (centres unmarked) : ____
100

----------
Listed here: items and their measured chromatographic logP.
experiment: log P by HPLC on reversed-phase column (EEC Directive 79/831 Annex V.A8); type: physicochemical
Give a plain numeric answer without units written out.

> print(dat)
                                   molecule    parameter.measured  test.value
1  COc1cccc2c1CCCC2CN(C(=O)c1c(C(F)F)nn(C)c1F)C1CC1 (stereo not drawn)  chromatographic logP        3.65
2  Clc1cccc2c1C(CNC1CC1)CCC2 (stereo not drawn)  chromatographic logP        1.57

Please examine the following record next.
Reported chromatographic logP, molecule CC1(C)CC(CNC2CC2)c2ccccc21 (stereo not drawn) : ____
1.12

----------
Listed here: items and their measured logP.
assay: log P by HPLC on reversed-phase column (EEC Directive 79/831 Annex V.A8); assay type: physicochemical; conditions: Table 1; HPLC C18, 40° C., 0.1% aqueous formic acid and acetonitrile gradient
Give a plain numeric answer without units written out.

Reference set (5 entries):
> print(dat)
                                   compound  parameter.measured  test.value
1  Cn1nc(C(F)F)c(C(=O)N(CC2CCCCc3ccccc32)C2CC2)c1F (centres unmarked)                logP        3.90
2  Cn1nc(C(F)F)c(C(=O)N(CC2CCc3cccc(Cl)c32)C2CC2)c1F (centres unmarked)                logP        3.80
3  Cn1nc(C(F)F)c(C(=O)N(CC2CCOc3ccccc32)C2CC2)c1Cl (centres unmarked)                logP        3.17
4  Cc1ccc2c(c1)CCC2CN(C(=O)c1c(C(F)F)nn(C)c1Cl)C1CC1 (centres unmarked)                logP        3.94
5  Cn1nc(C(F)F)c(C(=O)N(CC2(C)CCCc3ccccc32)C2CC2)c1F (centres unmarked)                logP        3.96

Reported logP, compound Cn1nc(C(F)F)c(C(=O)N(CC2CC(C)(C)c3ccccc32)C2CC2)c1F (centres unmarked) : ____
3.94

Reported logP, compound COc1cccc2c1CCCC2CN(C(=O)c1c(C(F)F)nn(C)c1F)C1CC1C (centres unmarked) : ____
4.06

Reported logP, compound Cn1nc(C(F)F)c(C(=O)N(CC2CSCc3ccccc32)C2CC2)c1F (centres unmarked) : ____
3.21

----------
system: Septoria tritici; assay: Example L: in vivo preventive test on Septoria tritici (wheat); conditions: table L; 500 ppm; wheat plants; grading 24 days after contamination
Listed here: items and their measured Efficacy.
Quote the value and follow it with the unit of measurement.

Reference set (2 entries):
> print(dat)
                                   molecule     tested.target  test.value
1  Cn1nc(C(F)F)c(C(=O)N(CC2CC(C)(C)c3ccccc32)C2CC2)c1Cl (stereo not drawn)  Septoria tritici         79%
2  Cn1nc(C(F)F)c(C(=O)N(CC2CCc3cc(Cl)ccc32)C2CC2)c1F (stereo not drawn)  Septoria tritici         93%

Reported Efficacy, molecule Cc1cccc2c1CCC2CN(C(=O)c1c(C(F)F)nn(C)c1F)C1CC1 (stereo not drawn) : ____
100%

Reported Efficacy, molecule Cn1nc(C(F)F)c(C(=O)N(CC2CCc3ccc(C(F)(F)F)cc32)C2CC2)c1Cl (stereo not drawn) : ____
98%

Reported Efficacy, molecule Cc1ccc2c(c1)CCC2CN(C(=O)c1c(C(F)F)nn(C)c1F)C1CC1 (stereo not drawn) : ____
97%

Reported Efficacy, molecule Cn1nc(C(F)F)c(C(=O)N(CC2CCc3cccc(Br)c32)C2CC2)c1F (stereo not drawn) : ____
93%

Reported Efficacy, molecule Cn1nc(C(F)F)c(C(=O)N(CC2CCc3cccc(Cl)c32)C2CC2)c1F (stereo not drawn) : ____
97%

Reported Efficacy, molecule Cn1nc(C(F)F)c(C(=O)N(CC2CCSc3ccc(Cl)cc32)C2CC2)c1F (stereo not drawn) : ____
79%

Reported Efficacy, molecule Cn1nc(C(F)F)c(C(=O)N(CC2CCOc3ccccc32)C2CC2)c1F (stereo not drawn) : ____
100%
